method: Unbound plasma concentration in the PET/CT study
Assay type: in vivo
measurement.conditions: human, 240 mg, Subject B240, 240 mg
Procedure: This Example was conducted as an open-label, single-dose (60 mg, 120 mg, 240 mg or 320 mg) clinical trial evaluating αvβ6 receptor occupancy in the lungs, safety, and pharmacokinetics of Compound #5 in subjects with IPF. […] Knottin tracer uptake kinetics were compared pre- and post-dose of the disclosed compound, as measured by standardized uptake values (SUVs) and parameters estimated from kinetic modeling in regions-of-interest on dynamic [^18F]FP-R01-MG-F2 PET/CT scans. […]
measurement.kind: concentration at 4 h (nM)
The response must be a number in nM with no trailing unit.

Looking up COCCN(CCCCc1ccc2c(n1)NCCC2)CC[C@H](Nc1ncnc2ccccc12)C(=O)O [Compound 5] , I found its concentration at 4 h recorded as 58.3

Data provenance is patent US20230293519A1.
